- Target or system: trypsin (human), P07477; also: test concentration or dose not given here
- Protocol notes: cell-based or functional assay
Observable: % Inhibition (%)
Note: unit % is implicit; provide only the numeric part.

I'd like to know its % Inhibition. The binder in question is AATG9, P01009 25-418 (protein, human) HHHHHHEDPQGDAAQKTDTSHHDQDHPTFNKITPNLAEFAFSLYRQLAHQSNSTNIFFSPVSIATAFAMLSLGTKADTHDEILEGLNFNLTEIPEAQIHEGFQELLRTLNQPDSQLQLTTGNGLFLSEGLKLVDKFLEDVKKLYHSEAFTVNFGDTEEAKKQINDYVEKGTQGKIVDLVKELDRDTVFALVNYIFFKGKWERPFEVKDTEEEDFHVDQVTTVKVPMMKRLGMFNIQHCKKLSSWVLLMKYLGNATAIFFLPDEGKLQHLENELTHDIITKFLENEDRRSASLHLPKLSITGTYDLKSVLGQLGITKVFSNGADLSGVTEEAPLKLSKAVHKAVLTIDEKGTEAAGAMFLETVDYAIPPEVKFNKPFVFLMIEQNTKSPLFMGKVVNPTQK
0
